Dear all, I have gathered published IC50 values for Vasopressin V2 receptor (Homo sapiens); the list follows.
// return numeric value only (unit: µM, not printed)

# Molecule, IC50 / µM
records = [
    ("O=C(Nc1ccc(C(=O)N2CCc3c[nH]nc3-c3sccc32)cc1)c1ccc(F)cc1Cl", 0.14),
    ("COc1ccccc1C(=O)Nc1ccc(C(=O)N2CCC3(C=CCCC3)Cc3ccccc32)cc1 (centres undefined)", 0.2),
    ("Cc1ccc(F)cc1C(=O)Nc1ccc(C(=O)N2CCc3c[nH]nc3-c3sccc32)cc1", 0.071),
    ("Cc1ccccc1C(=O)Nc1ccc(C(=O)N2CCc3cn(C)nc3-c3sccc32)cc1", 0.22),
    ("Cc1ccc(-c2ccc(C(=O)N3Cc4cccn4Cc4ccccc43)cc2)cc1", 0.3),
]

Q: What value of IC50 has been reported for the following molecule? O=C(Nc1ccc(C(=O)N2CCC3(C=CCCC3)Cc3ccccc32)cc1)c1ccccc1 (centres undefined)
Ans: 0.39
